Assay: Fluorescence spectrum measurement of triazapentalenes (Example 3)
Type: physicochemical
Settings: dichloromethane solution
parameter: λex (excitation wavelength, equal to absorption maximum wavelength λmax) (nm)

[
  {
    "compound": "Cn1c(-c2ccc(C#N)cc2)cn2ccc[n+]12 [Compound 1h]",
    "endpoint_value": 381
  },
  {
    "compound": "Cn1c(-c2ccc([N+](=O)[O-])cc2)cn2ccc[n+]12 [Compound 1m]",
    "endpoint_value": 412
  },
  {
    "compound": "COc1ccc(-c2cn3ccc[n+]3n2C)cc1 [Compound 1n]",
    "endpoint_value": 330
  },
  {
    "compound": "COC(=O)c1ccc(-c2cn3ccc[n+]3n2C)cc1 [Compound 1k]",
    "endpoint_value": 376
  },
  {
    "compound": "Cn1c(-c2cccc(C#N)c2)cn2ccc[n+]12",
    "endpoint_value": 330
  },
  {
    "compound": "Cn1c(-c2ccccc2)cn2ccc[n+]12 [Compound 1f]",
    "endpoint_value": 326
  }
]
